Target: UniProtKB Q99683
Experiment: ASK1 (Apoptosis Signal-Regulating Kinase 1) TR-FRET Kinase Assay (Biochemical IC50)
Details: TR-FRET, biotin-MBP substrate, 20 min pre-incubation, ATP added as 300 μM solution
Value type: IC50

Chemical string	Target or test system	Value type	Result
Cc1cc(-c2ccnc(C(=O)Nc3cccc(-c4nncn4C4CC4)c3)c2)cnc1F	UniProtKB Q99683	IC50	37 nM
O=C(Nc1cccc(-c2nncn2C2CC2)c1)c1cc(-n2cnc(C3CC3)n2)ccn1	UniProtKB Q99683	IC50	17 nM
Cc1c(-c2ccnc(C(=O)Nc3cccc(-c4nncn4C4CC4)c3)c2)cnn1C	UniProtKB Q99683	IC50	38 nM

Could you now consider this next compound?
Entry `CN(C)c1ccc(-c2ccnc(C(=O)Nc3cccc(-c4nncn4C4CC4)c3)c2)cn1` needs its IC50 filled in; supply it.
18 nM

====

log10 of IC50 values, listed per item
Molecular target: UniProtKB Q99683
Test: ASK1 (Apoptosis Signal-Regulating Kinase 1) TR-FRET Kinase Assay (Biochemical IC50)
Details: TR-FRET, biotin-MBP substrate, 20 min pre-incubation, ATP added as 300 μM solution
The base-10 logarithm of IC50, taken with IC50 in nM, is what appears here.

Molecule	Readout number
CCS(=O)(=O)c1ccc(-c2ccnc(C(=O)Nc3cccc(-c4nncn4C4CC4)c3)c2)cc1	1.08
O=C(Nc1cccc(-c2nncn2C2CC2)n1)c1cccc(-n2cnc(C3CC3)c2)c1	0.85
O=C(Nc1cccc(-c2nncn2C2CC2)n1)c1cccc(-n2cnc3c2CCCC3)c1	0.95
CC(CN1CCCC1)n1cnnc1-c1cccc(NC(=O)c2cc(-c3ccc(C4CC4)nc3)ccn2)n1 (centres unmarked)	1.56
COC[C@H](C)n1cnnc1-c1cccc(NC(=O)c2cc(-c3ccc(C4CC4)nc3)ccn2)n1	0.90
O=C(Nc1cccc(-c2cncn2C2CC2)n1)c1cc(-c2cnc3ccccc3c2)ccn1	3.02
C[C@@H](c1ccccc1)n1cnnc1-c1cccc(NC(=O)c2cc(-c3ccc(C4CC4)nc3)ccn2)c1	1.79

Entry `O=C(Nc1cccc(-c2nncn2C2CC2)n1)c1cc(-c2ccc(C3CC3)nc2)ccn1` needs its log10 of IC50 filled in; supply it.
0.78

====

Biological target: ASK1 (Apoptosis Signal-Regulating Kinase 1) (Homo sapiens (Human), UniProt Q99683)
Sequence (Q99683 649-946): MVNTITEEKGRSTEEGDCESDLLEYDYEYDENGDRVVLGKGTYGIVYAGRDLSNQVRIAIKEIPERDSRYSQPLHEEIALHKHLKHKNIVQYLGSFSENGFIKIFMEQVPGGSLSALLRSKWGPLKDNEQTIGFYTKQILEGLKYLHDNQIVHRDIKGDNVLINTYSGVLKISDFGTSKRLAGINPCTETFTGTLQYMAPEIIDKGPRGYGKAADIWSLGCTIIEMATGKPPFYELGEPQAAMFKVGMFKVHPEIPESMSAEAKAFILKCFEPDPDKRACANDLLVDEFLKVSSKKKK
Test: ASK1 (Apoptosis Signal-Regulating Kinase 1) TR-FRET Kinase Assay (Biochemical IC50)
Conditions: TR-FRET, biotin-MBP substrate, 20 min pre-incubation, ATP added as 300 μM solution
Cut-off 0.03 µM on IC50: below means met, at or above means not met.

Example entries begin here.
Chemical string	Discrete label
O=C(Nc1cccc(-c2nncn2C2CC2)c1)c1cc(-c2cnccn2)ccn1	not met
O=C(Nc1cccc(-c2nncn2C2CC2)c1)c1cc(-c2cnc3c(c2)CN(CC(F)(F)F)CC3)ccn1	met
CC(C)Oc1ccc(-c2ccnc(C(=O)Nc3cccc(-c4nncn4C4CC4)c3)c2)cn1	not met
Cc1cc(-c2ccc(C3CC3)nc2)cc(C(=O)Nc2cccc(-c3nncn3C3CC3)n2)n1	met
O=C(Nc1cc(F)cc(-c2nncn2C2CC2)c1)c1cc(-c2cccnc2)ccn1	not met
CCc1ccc(-c2ccnc(C(=O)Nc3cccc(-c4nncn4C4CC4)c3)c2)cn1	met

Consider the molecule `CC(C)n1cnnc1-c1cccc(NC(=O)c2cc(-c3cccnc3)ccn2)c1` . Is its IC50 strictly less than 0.03 µM?
met

====

pIC50 values, listed per item
Target: ASK1 (Apoptosis Signal-Regulating Kinase 1) (Homo sapiens (Human), UniProt Q99683)
Test: ASK1 (Apoptosis Signal-Regulating Kinase 1) TR-FRET Kinase Assay (Biochemical IC50)
Details: TR-FRET, biotin-MBP substrate, 20 min pre-incubation, ATP added as 300 μM solution
Remember, pIC50 is on a log scale: it is -log10 of the molar concentration.

Completed entries (count: 3):
Chemical string	pIC50
Cc1cccc(C)c1OC[C@H](C)n1cnnc1-c1cccc(NC(=O)c2cc(-c3ccc(C4CC4)nc3)ccn2)c1	4.96
O=C(Nc1cccc(-c2nncn2C2CC2)c1)c1cc(-c2cncc(C(F)(F)F)c2)ccn1	7.36
Cc1ncn(-c2cccc(C(=O)Nc3cccc(-c4nncn4C4CC4)n3)c2)c1C	8.05

Could you now consider this next compound?
Entry `Cc1ncn(-c2cccc(C(=O)Nc3cccc(-c4nncn4[C@@H](C)C(F)(F)F)n3)c2)c1C` needs its pIC50 filled in; supply it.
8.10

====

Molecular target: ASK1 (Apoptosis Signal-Regulating Kinase 1) (Homo sapiens (Human))
Experiment: ASK1 (Apoptosis Signal-Regulating Kinase 1) TR-FRET Kinase Assay (Biochemical IC50)
Settings: TR-FRET, biotin-MBP substrate, 20 min pre-incubation, ATP added as 300 μM solution
Value type: pIC50
Remember, pIC50 is on a log scale: it is -log10 of the molar concentration.

Completed entries (count: 7):
Chemical string	pIC50
CSc1ccc(-c2ccnc(C(=O)Nc3cccc(-c4nncn4C4CC4)c3)c2)cn1	7.96
Cn1cnnc1-c1cccc(NC(=O)c2cc(-c3cnc4ccccn34)ccn2)c1	7.36
CC(C)c1cn(-c2ccnc(C(=O)Nc3cccc(-c4nncn4C4CC4)c3)c2)cn1	8.40
CS(=O)(=O)N1CCN(c2ccnc(C(=O)Nc3cccc(-c4nncn4C4CC4)c3)c2)CC1	7.51
COc1cncc(-c2ccnc(C(=O)Nc3cccc(-c4nncn4C4CC4)c3)c2)c1	7.77
O=C(Nc1cccc(-c2nncn2C2CC2)c1)c1cc(-c2cnc(C3CC3)c(Cl)c2)ccn1	6.88
O=C(Nc1cccc(-c2nncn2C2CC2)n1)c1cccc(-n2cc(C3CC3)nn2)c1	7.64

Could you now consider this next compound?
Provide the reported pIC50 (system: ASK1 (Apoptosis Signal-Regulating Kinase 1) (Homo sapiens (Human))) for `CCc1ccc(-c2ccnc(C(=O)Nc3ccc(F)c(-c4nncn4C4CC4)c3)c2)cn1`
7.25

====

Molecular target: ASK1 (Apoptosis Signal-Regulating Kinase 1) (Homo sapiens (Human))
Test: ASK1 (Apoptosis Signal-Regulating Kinase 1) TR-FRET Kinase Assay (Biochemical IC50)
Conditions: TR-FRET, biotin-MBP substrate, 20 min pre-incubation, ATP added as 300 μM solution
Cut-off 0.02 µM on IC50: below means Yes, at or above means No.

Example entries begin here.
Compound	Discrete label
O=C(Nc1cccc(-c2nncn2C2CC2)c1)c1cc(-c2ccc(OCC(F)(F)F)nc2)ccn1	No
CC(C)(O)c1ccc(-c2ccnc(C(=O)Nc3cccc(-c4nncn4C4CC4)n3)c2)cn1	Yes
COC(=O)Nc1ccc(-c2ccnc(C(=O)Nc3cccc(-c4nncn4C4CC4)c3)c2)cn1	No
O=C(Nc1cccc(-c2cncn2C2CC2)c1)c1cc(-c2cnc3ccccc3c2)ccn1	No
CC(C)[C@H](C)n1cnnc1-c1cccc(NC(=O)c2cc(-n3cnc(C4CC4)c3)ccn2)c1	No

Consider the compound `O=C(Nc1cccc(-c2nncn2C2CC2)c1)c1cc(-c2ccc(F)nc2)ccn1` . Is its IC50 strictly less than 0.02 µM?
No

Consider the compound `Cn1cnnc1-c1cccc(NC(=O)c2cc(-c3ccccc3)ccn2)c1` . Is its IC50 strictly less than 0.02 µM?
No

Consider the compound O=C(Nc1cccc(-c2nncn2C2CC2)n1)c1cc(-n2cnc3c2CCNC3C(F)(F)F)ccn1 (centres unmarked) . Is its IC50 strictly less than 0.02 µM?
Yes

Consider the compound `Cc1ccc2c(-c3ccc(C4CC4)nc3)cc(C(=O)Nc3cccc(-c4nncn4C4CC4)n3)nc2c1C` . Is its IC50 strictly less than 0.02 µM?
No

Consider the compound `CNS(=O)(=O)c1ccc(-c2ccnc(C(=O)Nc3cccc(-c4nncn4C4CC4)c3)c2)cc1` . Is its IC50 strictly less than 0.02 µM?
Yes

Consider the compound `O=C(Nc1cccc(-c2nncn2C2CC2)n1)c1cccc(-c2cccnc2)c1` . Is its IC50 strictly less than 0.02 µM?
Yes

====

pIC50 values, listed per item
Target: ASK1 (Apoptosis Signal-Regulating Kinase 1) (Homo sapiens (Human), UniProt Q99683)
Test: ASK1 (Apoptosis Signal-Regulating Kinase 1) TR-FRET Kinase Assay (Biochemical IC50)
Details: TR-FRET, biotin-MBP substrate, 20 min pre-incubation, ATP added as 300 μM solution
Remember, pIC50 is on a log scale: it is -log10 of the molar concentration.

Completed entries (count: 5):
Compound	Readout number
O=C(Nc1cccc(-c2nncn2C2CC2)n1)c1cc(-n2cnc3c2CCCC3)ccn1 [Example 187]	8.40
O=C(Nc1cccc(-c2nncn2C2CC2)c1)c1cc(-n2nnc3ccccc32)ccn1 [Example 85]	6.85
CS(=O)(=O)c1ccc(-c2ccnc(C(=O)Nc3cccc(-c4nncn4C4CC4)c3)c2)cc1 [Example 79]	8.22
O=C(Nc1cccc(-c2nncn2C2CC2)c1)c1cc(-c2cnc(C3CC3)cn2)ccn1 [Example 133]	8.00
CC(C)(C)c1ccc(-c2ccnc(C(=O)Nc3cccc(-c4nncn4C4CC4)c3)c2)cn1 [Example 149]	7.60

Entry C[C@H](CO)n1cnnc1-c1cccc(NC(=O)c2cc(-c3cccnc3)ccn2)c1 [Example 19] needs its pIC50 filled in; supply it.
8.05

Entry O=C(Nc1cccc(-c2nncn2C2CC2)c1)c1cc(-c2cnc3ccccc3c2)ccn1 [Example 84] needs its pIC50 filled in; supply it.
7.89

Entry O=C(Nc1cccc(-c2nncn2C2CC2)c1)c1cc(-c2ccc(CC(F)(F)F)nc2)ccn1 [Example 171] needs its pIC50 filled in; supply it.
8.15

FYI, the data here is from patent USRE48711E1.
